Sourced from patent US8889878B2

Test: logP by HPLC on reverse-phase column (EEC Directive 79/831 Annex V.A8)
Format: physicochemical
Conditions: HPLC, C18 reverse phase, 43° C., acidic range pH 2.7, calibration with alkan-2-ones
PROPERTY: logP

[Q] Please give the measured logP for this compound: ON=C(c1cc(F)cc(C(F)(F)F)c1)C(F)(F)F (racemic)
[A] 3.21

====

Reported kill rate in % (efficacy) values for a set of compounds
Test system: Lucilia cuprina larvae
Assay: Lucilia cuprina test (LUCICU), Example 3
Type: in vivo
Conditions: application rate 20 ppm, treated horsemeat, after 2 days
Hi! Could you send only the number? It should be in %, unit omitted.

Answered cases to consult:
{"COMPOUND": "O=C(/C=C/c1ccc(C(=O)NC2CC2)c(Br)c1)NC(c1cccc(C(F)(F)F)c1)C(F)(F)F (stereo not drawn)", "kill rate in % (efficacy) / %": 100}
{"COMPOUND": "O=C(/C=C/c1ccc(C(=O)NC2CC2)c(C(F)(F)F)c1)NC(c1cccc(C(F)(F)F)c1)C(F)(F)F (stereo not drawn)", "kill rate in % (efficacy) / %": 100}

[Q] What kill rate in % (efficacy) value was documented for this compound, Cc1cc(/C=C/C(=O)NC(c2cccc(C(F)(F)F)c2)C(F)(F)F)ccc1C(=O)NCc1ccccn1 (stereo not drawn) ?
[A] 90
